Molecular target: T1, SNTA1, Q13424
T1 sequence (Q13424 82-180, limits assumed, looked up): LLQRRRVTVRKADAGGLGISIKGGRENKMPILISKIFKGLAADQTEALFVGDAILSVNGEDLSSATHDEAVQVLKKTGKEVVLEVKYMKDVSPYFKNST
Assay: holdup assay
Set-up: key: below the threshold = too weak to quantify, mostly under pKd 3.1 to 4
Conditions: plain residues with an end cap or a label only (N-terminal biotin on a linker: ado-ado)
Parameter: pKd

Solved entries:
>>> print(df.to_string())
                        binder  parameter             reported
0   LESTTVGTSV [KARS1, Q15046]        pKd  below the threshold
1   AQRARSPSDV [GPR12, P47775]        pKd  below the threshold
2  SLNANEVEWF [RNF130, Q86XS8]        pKd  below the threshold
3   RQKEVRESKC [SCN8A, Q9UQD0]        pKd                 4.65

Below are some binders; for each one, tell me its pKd.
1. SFISKKEWYV [NECTIN1, Q15223]
2. ARGPPRESEV [FAM110D, Q8TAY7]

1: below the threshold; 2: 5.27
